# Assay overview: Phase 1a multiple ascending dose study (oral solution): plasma pharmacokinetics
# Format: in vivo, human
# Condition summary: human, plasma, oral, 120 mg, Cohort 2, 120 mg; Day 1; read-out: Cmax, mean (SD)
Outcome measure: Cmax (ng/mL)
Write down the numeric answer in ng/mL and omit the unit.

Problem: State its Cmax for this compound: CC(C)(C)OC(=O)N1CCN(Cc2ccn(Cc3ccc(Cl)cc3)c(=O)c2O)CC1
Result: 9.54

----------
# Assay overview: Phase 1a multiple ascending dose study (oral solution): plasma pharmacokinetics
# Format: in vivo, human
# Condition summary: human, plasma, oral, 240 mg, Cohort 3, 240 mg once daily; Day 7; Hour 3; read-out: Compound 1 concentration, Conc (SD)
Outcome measure: concentration at 3 h (ng/mL)
Write down the numeric answer in ng/mL and omit the unit.

Problem: State its concentration at 3 h for this molecule: CC(C)(C)OC(=O)N1CCN(Cc2ccn(Cc3ccc(Cl)cc3)c(=O)c2O)CC1
Result: 7.61

----------
# Assay overview: Compound 1 pH-solubility at 22° C.
# Format: physicochemical
# Condition summary: citrate buffer, aqueous buffer, thermodynamic from solid; pH 3 (Citrate 25 mM, l = 0.1), pH 2.9, 22° C.
Outcome measure: solubility (µg/mL)
Write down the numeric answer in µg/mL and omit the unit.

Problem: State its solubility for this compound: CC(C)(C)OC(=O)N1CCN(Cc2ccn(Cc3ccc(Cl)cc3)c(=O)c2O)CC1
Result: 570

----------
# Assay overview: Phase 1a multiple ascending dose study (oral solution): plasma pharmacokinetics
# Assay type: in vivo, human
# Condition summary: human, plasma, oral, 120 mg, Cohort 2, 120 mg once daily; Day 7; Hour 4; read-out: Compound 1 concentration, Conc (SD)
Outcome measure: concentration at 4 h (ng/mL)
Write down the numeric answer in ng/mL and omit the unit.

Problem: State its concentration at 4 h for this compound: CC(C)(C)OC(=O)N1CCN(Cc2ccn(Cc3ccc(Cl)cc3)c(=O)c2O)CC1
Result: 1.6

----------
# Assay overview: Phase 1a multiple ascending dose study (oral solution): plasma pharmacokinetics
# Format: in vivo, human
# Condition summary: human, plasma, oral, 240 mg, Cohort 3, 240 mg once daily; Day 7; Hour 12; read-out: Compound 1 concentration, Conc (SD)
Outcome measure: concentration at 12 h (ng/mL)
Write down the numeric answer in ng/mL and omit the unit.

Problem: State its concentration at 12 h for this molecule: CC(C)(C)OC(=O)N1CCN(Cc2ccn(Cc3ccc(Cl)cc3)c(=O)c2O)CC1
Result: 4.66

----------
# Assay overview: Phase 1a multiple ascending dose study (oral solution): plasma pharmacokinetics
# Format: in vivo, human
# Condition summary: human, plasma, oral, 60 mg, Cohort 5, 60 mg; Day 1; read-out: AUC(0-τ), mean (SD)
Outcome measure: AUC (ng·h/mL)
Write down the numeric answer in ng·h/mL and omit the unit.

Problem: State its AUC for this molecule: CC(C)(C)OC(=O)N1CCN(Cc2ccn(Cc3ccc(Cl)cc3)c(=O)c2O)CC1 [Compound 1]
Result: 28.7

----------
# Assay overview: Phase 1a multiple ascending dose study (oral solution): plasma pharmacokinetics
# Type: in vivo, human
# Condition summary: human, plasma, oral, 60 mg, Cohort 5, 60 mg; Day 1; Hour 3; read-out: Compound 1 concentration, Conc (SD)
Outcome measure: concentration at 3 h (ng/mL)
Write down the numeric answer in ng/mL and omit the unit.

Problem: State its concentration at 3 h for this compound: CC(C)(C)OC(=O)N1CCN(Cc2ccn(Cc3ccc(Cl)cc3)c(=O)c2O)CC1 [Compound 1]
Result: 0
